src = patent US20250019450A1

system name: human IL-12 receptor (IL-12Rβ1 and IL-12Rβ2) on HEK-Blue IL-12 cells (human, UniProt P42701 24-662; Q99665 24-862)
Sequence (Q99665 24-862, chain 2 of 2, other chains not shown): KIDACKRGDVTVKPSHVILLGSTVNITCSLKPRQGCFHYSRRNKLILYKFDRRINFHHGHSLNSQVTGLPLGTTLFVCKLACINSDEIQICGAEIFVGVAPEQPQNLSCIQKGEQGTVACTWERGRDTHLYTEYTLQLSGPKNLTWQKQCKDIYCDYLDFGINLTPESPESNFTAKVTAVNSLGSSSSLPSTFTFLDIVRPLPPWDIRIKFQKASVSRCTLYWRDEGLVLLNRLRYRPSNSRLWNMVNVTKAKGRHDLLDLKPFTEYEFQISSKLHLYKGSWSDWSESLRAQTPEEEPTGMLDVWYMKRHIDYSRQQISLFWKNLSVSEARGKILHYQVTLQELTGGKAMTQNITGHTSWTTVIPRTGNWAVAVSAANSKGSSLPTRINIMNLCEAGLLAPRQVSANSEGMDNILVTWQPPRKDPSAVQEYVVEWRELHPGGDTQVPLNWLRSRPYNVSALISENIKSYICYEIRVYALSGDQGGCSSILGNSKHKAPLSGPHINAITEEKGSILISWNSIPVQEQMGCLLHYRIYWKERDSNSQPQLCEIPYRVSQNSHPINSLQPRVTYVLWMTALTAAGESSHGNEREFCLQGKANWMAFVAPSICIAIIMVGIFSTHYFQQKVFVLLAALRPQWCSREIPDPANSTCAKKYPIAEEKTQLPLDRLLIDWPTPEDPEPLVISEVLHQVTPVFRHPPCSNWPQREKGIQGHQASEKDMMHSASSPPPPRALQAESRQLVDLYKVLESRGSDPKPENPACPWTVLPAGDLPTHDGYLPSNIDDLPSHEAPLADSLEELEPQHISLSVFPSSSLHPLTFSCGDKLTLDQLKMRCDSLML
test summary: cell-based or functional assay
readout kind: EC50

Consider the binder DGL516 (bispecific antibody, V domains shown, 97B1 x 93B2) V domain 1: QVQLVESGGGLAQAGGSLRLSCAASGRTFSNDDMAWFRQAPGKEREFVAHIDRNAASTNYADSVKGRFTISRDNAKNTVYLQMTRLKPEDTAVYYCAADPDHFGTTWYQQYTYWGPGTQVTVEP V domain 2: QVQLVESGGGLVQPGGSLRLSCAASGFTFEPYDMSWFRQAPGKGPEWVSAIDKGGGAGATYYADSVKGRFTISRDNAKKTLYLQMKSLKPEDTAVYYCAITAGPYSDSTPRVAYRGEGTQVTVEP and give its measured EC50.
6.5e-11 M (implied)

Next entry: DGL464 (bispecific antibody, V domains shown) V domain 1: QVQLVESGGGLVQAGGSLRLSCAASGRAFSRYSMGWFRQAPGKEREFVAANYWSNGWTDYADTVKGRFSISRDNAKNTVYLQMNSLKPEDTAVYYCAGRSSSIPSADVVGYDYWGQGTQVTVEP V domain 2: QVQLVESGGGLVQPGGSLRLSCAASGFTFSNYAMSWVRQAPGKGLEWVSAINSDGTSTSYADSVKGQFTISRDNAKNTLYLQMNSLKPEDTAVYYCTKWEGDTDSDYKFKDYWGQGTQVTVEP
> 100 nM

Switching to the query record.
Consider the binder DGL551 (bispecific antibody, V domains shown, 195B1 x 185B2) V domain 1: QVQLVESGGGLVQAGGSLRLSCAASGRTFGTYAMGWFRQAPGKERDFVARISNSGAFTHYADSVKGRFTISRDNAKNTVYLHMNSLENGDTAAYYCVATRGTNSAYYTRSTMYEYWGQGTQVTVEP V domain 2: QVQLVESGGGLVQAGGSLRLSCAASGRTFSRYRMGWFRQAPGKEREFVAAITKSGATTYDADSVKGRFTISRDNAKNTLYLQMNSLKPEDTAVYYCAASYHSNWWPKNADEYAYWGQGTQVTVEP and give its measured EC50.
4.7e-09 M (implied)
